Reference source: patent US20090123479A1

- testedTarget: T1, recombinant human IL-23 (human, UniProt Q9NPF7 20-189; P29460 23-328)
- T1 construct: also called hIL-23
- T1 sequence 1: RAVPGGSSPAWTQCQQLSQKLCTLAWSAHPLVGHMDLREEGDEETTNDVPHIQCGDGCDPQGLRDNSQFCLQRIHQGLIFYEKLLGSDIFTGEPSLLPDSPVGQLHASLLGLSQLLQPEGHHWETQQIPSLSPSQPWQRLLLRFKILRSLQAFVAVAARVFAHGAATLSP
- T1 sequence 2: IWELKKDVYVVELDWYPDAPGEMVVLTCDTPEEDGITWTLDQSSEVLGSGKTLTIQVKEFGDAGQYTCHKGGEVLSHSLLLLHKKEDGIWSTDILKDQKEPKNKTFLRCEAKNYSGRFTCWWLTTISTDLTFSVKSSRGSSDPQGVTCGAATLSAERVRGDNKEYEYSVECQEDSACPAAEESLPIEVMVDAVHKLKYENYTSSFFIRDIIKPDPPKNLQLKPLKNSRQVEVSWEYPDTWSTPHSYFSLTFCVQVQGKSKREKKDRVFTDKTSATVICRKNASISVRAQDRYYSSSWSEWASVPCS
- assayProtocol: SPR (Biacore 3000), CHO supernatant antibody captured on Protein A or anti-human IgG, IL-23 analyte at 256, 64, 16, 4 nM
pKd: −log10 of the molar value.
Listing of recorded pKd by entry.

binder: A3N1 (antibody, human IgG1, kappa, V domains shown, Full length chains) VH: QVQLVQSGAEVKKPGSSVKVSCKASGYTFTSYGITWVRQAPGQGLEWMGENYPRSGNTYYNEKFKGRVTITADKSTSTAYMELSSLRSEDTAVYYCARSEFISTVVAPYYYALDYWGQGTLVTVSS VL: DIVMTQTPLSLSVTPGQPASISCKASKKVTIFGSISALHWYLQKPGQPPQLIYNGAKLESGVSDRFSDSGSQNRSPFGNQLSFTLKISRVEAEDVGVYYCLQNKEVPYTFGGGTKVEIKR
pKd: 8.64
//
binder: A3M1 (antibody, human IgG1, kappa, V domains shown, Full length chains) VH: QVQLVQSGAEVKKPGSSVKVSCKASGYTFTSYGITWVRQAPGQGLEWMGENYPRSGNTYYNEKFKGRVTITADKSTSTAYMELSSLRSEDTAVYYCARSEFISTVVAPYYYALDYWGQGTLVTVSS VL: DIVMTQSPDSLAVSLGERATINCKASKKVTIFGSISALHWYQQKPGQPPKLIYNGAKLESGVSDRFSDSGSQNRSPFGNQLSFTLTISSLQAEDVAVYYCLQNKEVPYTFGGGTKVEIKR
pKd: 8.82
//
binder: A3N2 (antibody, human IgG1, kappa, V domains shown, Full length chains) VH: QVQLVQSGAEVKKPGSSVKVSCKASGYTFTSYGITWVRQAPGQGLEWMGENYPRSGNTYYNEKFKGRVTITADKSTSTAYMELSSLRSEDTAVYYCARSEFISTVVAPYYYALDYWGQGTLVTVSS VL: DIVMTQTPLSLSVTPGQPASISCKASKKVTIFGSISALHWYLQKPGQPPQLIYNGAKLESGVSDRFSDSGSGTDFTLKISRVEAEDVGVYYCLQNKEVPYTFGGGTKVEIKR
pKd: 8.82
//
binder: A3M0 (antibody, human IgG1, kappa, V domains shown, Full length chains; also called humanized mAb A3M0) VH: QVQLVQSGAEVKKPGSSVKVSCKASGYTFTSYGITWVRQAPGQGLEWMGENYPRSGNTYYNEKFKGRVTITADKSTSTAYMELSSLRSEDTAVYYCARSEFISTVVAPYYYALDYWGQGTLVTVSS VL: DIVMTQSPDSLAVSLGERATINCKASKKVTIFGSISALHWYQQKPGQPPKLIYNGAKLESGVPDRFSGSGSGTDFTLTISSLQAEDVAVYYCLQNKEVPYTFGGGTKVEIKR
pKd: 8.96
